Provenance of the data: patent US20240279227A1

# Test system: HBV
# PROTOCOL NOTES: Anti-HBV activity in HepG2.117 cell line (intracellular HBV DNA, real-time PCR)
# Type: cell-based, hepatitis B virus
# CONDITION DESCRIPTION: HepG2.117 cells, HBV replication induced, 3 days of treatment, intracellular HBV DNA by real-time PCR
OBSERVATION TYPE: EC50 (µM)
Unit µM implied. Number only.

Name the recorded EC50 of the item CNC(=O)[C@@H]1CN(C(C)c2nc(C(F)(F)F)cs2)C(=O)c2c3c(nn21)C[C@@H](C)N(C(=O)c1ccc(Cl)c(Cl)c1)C3 (single isomer, unassigned) [Compound 44B] in your answer.
0.091

Name the recorded EC50 of the item CNC(=O)[C@@H]1CN(C(C)c2ccccn2)C(=O)c2c3c(nn21)C[C@@H](C)N(C(=O)c1ccc(Cl)c(Cl)c1)C3 (single isomer, unassigned) [Compound 37B] in your answer.
0.067

Name the recorded EC50 of the item CNC(=O)[C@@H]1CN(C(C)c2cnc(C(F)(F)F)nc2)C(=O)c2c3c(nn21)C[C@@H](C)N(C(=O)c1ccc(Cl)c(C(F)(F)F)c1)C3 (single isomer, unassigned) [Compound 43A] in your answer.
0.61

Name the recorded EC50 of the item CNC(=O)[C@@H]1CN(C(C)c2ccc(S(C)(=O)=O)cc2)C(=O)c2c3c(nn21)C[C@@H](C)N(C(=O)c1ccc(Cl)c(C(F)(F)F)c1)C3 (single isomer, unassigned) [Compound 19B] in your answer.
0.028

Name the recorded EC50 of the item CNC(=O)[C@@H]1CN(C(C)c2ccc(C(C)(C)O)cn2)C(=O)c2c3c(nn21)C[C@@H](C)N(C(=O)c1ccc(Cl)c(Cl)c1)C3 (single isomer, unassigned) [Compound 39A] in your answer.
1.68

Name the recorded EC50 of the item CNC(=O)[C@@H]1CN(C(C)c2ccc(-n3cncn3)cn2)C(=O)c2c3c(nn21)C[C@@H](C)N(C(=O)c1ccc(Cl)c(Cl)c1)C3 (single isomer, unassigned) [Compound 40A] in your answer.
0.28

Name the recorded EC50 of the item CNC(=O)[C@@H]1CN(C(C)c2ccc(-n3cncn3)cc2)C(=O)c2c3c(nn21)C[C@@H](C)N(C(=O)c1ccc(Cl)c(Cl)c1)C3 (single isomer, unassigned) [Compound 2B] in your answer.
0.017

Name the recorded EC50 of the item CNC(=O)[C@@H]1CN(C(C)c2cc(F)ccn2)C(=O)c2c3c(nn21)C[C@@H](C)N(C(=O)c1ccc(Cl)c(Cl)c1)C3 (single isomer, unassigned) [Compound 42A] in your answer.
0.28

Name the recorded EC50 of the item CC(c1ccc(OC(F)F)nc1)N1C[C@@H](C(N)=O)n2nc3c(c2C1=O)CN(C(=O)c1ccc(Cl)c(Cl)c1)[C@H](C)C3 (single isomer, unassigned) [Compound 12A] in your answer.
0.059

Name the recorded EC50 of the item CNC(=O)[C@@H]1CN(C(C)c2ccc(N3CCCC3=O)nc2)C(=O)c2c3c(nn21)C[C@@H](C)N(C(=O)c1ccc(Cl)c(Cl)c1)C3 (relative stereo) [Compound 34B] in your answer.
0.049

* * *

# System: HBV
# PROTOCOL NOTES: Anti-HBV activity in HepG2.117 cell line (intracellular HBV DNA, real-time PCR)
# Format: cell-based, hepatitis B virus
# CONDITION DESCRIPTION: HepG2.117 cells, HBV replication induced, 3 days of treatment, intracellular HBV DNA by real-time PCR
Examples of molecules with documented EC50 follow.
Unit µM implied. Number only.

Below are worked cases with known answers.
MOLECULE	DISPLAY UNIT	RECORDED RESULT
CNC(=O)[C@@H]1CN(C(C)c2ccc(-c3nnnn3C)cc2)C(=O)c2c3c(nn21)C[C@@H](C)N(C(=O)c1ccc(Cl)c(Cl)c1)C3 (single isomer, unassigned) [Compound 29A]	µM	0.82
CNC(=O)[C@@H]1CN(C(C)c2ccc(NCC(F)(F)F)nc2)C(=O)c2c3c(nn21)C[C@@H](C)N(C(=O)c1ccc(Cl)c(Cl)c1)C3 (single isomer, unassigned) [Compound 33B]	µM	0.055
CCC(c1ccc(S(C)(=O)=O)cc1)N1C[C@@H](C(=O)NC)n2nc3c(c2C1=O)CN(C(=O)c1ccc(Cl)c(Cl)c1)[C@H](C)C3 (single isomer, unassigned) [Compound 22B]	µM	0.05
CNC(=O)[C@@H]1CN(C(C)c2ccc(-c3c(C)noc3C)nc2)C(=O)c2c3c(nn21)C[C@@H](C)N(C(=O)c1ccc(Cl)c(Cl)c1)C3 (single isomer, unassigned) [Compound 35A]	µM	0.39

Name the recorded EC50 of the item CNC(=O)[C@@H]1CN(C(C)c2ccc(-n3cncn3)cn2)C(=O)c2c3c(nn21)C[C@@H](C)N(C(=O)c1ccc(Cl)c(Cl)c1)C3 (single isomer, unassigned) [Compound 40B] in your answer.
0.097

* * *

# PROTOCOL NOTES: Cytotoxicity, ATPlite Luminescence Assay
# Type: cell-based, human
# CONDITION DESCRIPTION: human, HepG2 or HepG2.117 cells, 3-days incubation unless marked with *, ATPlite viability
OBSERVATION TYPE: CC50

Below are worked cases with known answers.
COMPOUND	RECORDED RESULT
CNC(=O)[C@@H]1CN(C(C)c2ccc(C#N)cc2)C(=O)c2c3c(nn21)C[C@@H](C)N(C(=O)c1ccc(Cl)c(Cl)c1)C3 (single isomer, unassigned) [Compound 23A]	> 50 µM
CNC(=O)[C@@H]1CN(C(C)c2ccccn2)C(=O)c2c3c(nn21)C[C@@H](C)N(C(=O)c1ccc(Cl)c(Cl)c1)C3 (single isomer, unassigned) [Compound 37A]	> 50 µM

For the next question, use this compound.
Name the recorded CC50 of the item CNC(=O)[C@@H]1CN([C@@H](C)c2cnc(C(F)(F)F)cn2)C(=O)c2c3c(nn21)C[C@@H](C)N(C(=O)c1ccc(Cl)c(Cl)c1)C3 in your answer.
> 50 µM

* * *

# Test system: HepG2 or HepG2.117 cells
# PROTOCOL NOTES: Cytotoxicity, ATPlite Luminescence Assay
# Format: cell-based, human
# CONDITION DESCRIPTION: 3-days incubation unless marked with *, ATPlite viability
OBSERVATION TYPE: CC50

Below are worked cases with known answers.
MOLECULE	CC50
CNC(=O)[C@@H]1CN(C(C)c2ccc(-n3cncn3)cc2)C(=O)c2c3c(nn21)C[C@@H](C)N(C(=O)c1ccc(Cl)c(Cl)c1)C3 (single isomer, unassigned)	> 50 µM
CNC(=O)[C@@H]1CN(C(C)c2ccc(-c3c(C)noc3C)nc2)C(=O)c2c3c(nn21)C[C@@H](C)N(C(=O)c1ccc(Cl)c(Cl)c1)C3 (single isomer, unassigned) [Compound 35B]	> 50 µM

For the next question, use this molecule.
Name the recorded CC50 of the item CNC(=O)[C@@H]1CN(C(C)c2ccc(S(C)(=O)=O)cc2)C(=O)c2c3c(nn21)C[C@@H](C)N(C(=O)c1ccc(Cl)c(C(F)(F)F)c1)C3 (single isomer, unassigned) [Compound 19B] in your answer.
> 50 µM
